- targetDesc: HLA-A*68:02
- assay: IEDB peptide-MHC binding, purified MHC/competitive/radioactivity; filed as Kd, often an IC50 or EC50 that approximates it; bounds were set here for any values at or beyond the usual limits of such assays
- measurementParameters: source organism: Vaccinia virus WR
observedProperty: pKd
# pKd = -log10(concentration in molar units)

Q: Identify the reported pKd for the following entry. KTSTLIFFV
Ans: 7.33

====

- targetDesc: HLA-A*01:01
- assay: IEDB peptide-MHC binding, purified MHC/direct/fluorescence; filed as Kd, often an IC50 or EC50 that approximates it; bounds were set here for any values at or beyond the usual limits of such assays
- measurementParameters: source organism: dengue virus type 3
observedProperty: pKd
pKd is defined as minus the log10 of a concentration measured in mol/L.

Q: Write down pKd measured for item TSEHGGRAY
Ans: 6.47

====

- targetDesc: HLA-A*69:01
- assay: IEDB peptide-MHC binding, purified MHC/competitive/fluorescence; filed as Kd, often an IC50 or EC50 that approximates it; bounds were set here for any values at or beyond the usual limits of such assays
- measurementParameters: source organism: Orthohantavirus andesense
pKd: −log10 of the molar value.
observedProperty: pKd

Q: Return pKd (reported value) for this sequence: DWMDRIEEF
Ans: ≤ 4.70

====

- targetDesc: HLA-A*02:11
- assay: IEDB peptide-MHC binding, purified MHC/competitive/fluorescence; filed as Kd, often an IC50 or EC50 that approximates it; bounds were set here for any values at or beyond the usual limits of such assays
- measurementParameters: source organism: Human immunodeficiency virus 1
pKd: −log10 of the molar value.
observedProperty: pKd

Q: Answer with the recorded pKd of FLGKIWSS only.
Ans: ≥ 10.00

====

- targetDesc: HLA-B*15:01
- assay: IEDB peptide-MHC binding, purified MHC/direct/fluorescence; filed as Kd, often an IC50 or EC50 that approximates it; bounds were set here for any values at or beyond the usual limits of such assays
- measurementParameters: source organism: Salmonella enterica
observedProperty: pKd
Scale for pKd: -log10 of concentration given in mol/L; no unit attached.

Q: Please give measured pKd of the following entry: AMMWRIAQL
Ans: 6.77

====

- targetDesc: HLA-B*58:01
- assay: IEDB peptide-MHC binding, purified MHC/competitive/radioactivity; filed as Kd, often an IC50 or EC50 that approximates it; bounds were set here for any values at or beyond the usual limits of such assays
- measurementParameters: source organism: Dengue virus 1 Brazil/97-11/1997
Consider the following sequences and their measured pKd readings.
In plain terms, pKd is the concentration in mol/L turned into minus its base-10 logarithm.

Past entries and their recorded results:
>  <chain>
ASSALLWMAS

>  <targetDesc>
HLA-B*58:01

>  <observedProperty>
pKd

>  <numericReadout>
4.77

$$$$
>  <chain>
KSYAQMWQL

>  <targetDesc>
HLA-B*58:01

>  <observedProperty>
pKd

>  <numericReadout>
8.11

$$$$

Q: Output measured pKd for this item: TAAVLMLVAH
Ans: 5.26

====

- targetDesc: HLA-A*31:01
- assay: IEDB peptide-MHC binding, purified MHC/competitive/radioactivity; filed as Kd, often an IC50 or EC50 that approximates it; bounds were set here for any values at or beyond the usual limits of such assays
- measurementParameters: source organism: Dengue virus 4 Philippines/H241/1956
The sequences listed here are annotated with their Kd.
Report the value in nM with no unit label.

>  <chain>
MVLAFITFLR

>  <Kd [nM]>
4.34

$$$$

Kindly consider the entry below.
Q: Give me measured Kd, please, for this sequence: ASLPTYLSSR
Ans: 7.6
